# assay system: purified Human plasma kallikrein (Homo sapiens)
# Construct: yields a heavy chain (371 amino acids) and a light chain (248 amino acids)
# Sequence (P03952 391-638 limits assumed): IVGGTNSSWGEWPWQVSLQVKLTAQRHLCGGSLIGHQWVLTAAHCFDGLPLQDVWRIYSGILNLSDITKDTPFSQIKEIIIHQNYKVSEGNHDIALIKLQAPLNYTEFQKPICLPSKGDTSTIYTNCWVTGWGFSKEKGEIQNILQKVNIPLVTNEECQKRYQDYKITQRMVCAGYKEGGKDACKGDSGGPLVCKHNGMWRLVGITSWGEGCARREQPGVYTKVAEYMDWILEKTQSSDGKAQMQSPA
# Sequence (P03952 20-390 partner limits assumed): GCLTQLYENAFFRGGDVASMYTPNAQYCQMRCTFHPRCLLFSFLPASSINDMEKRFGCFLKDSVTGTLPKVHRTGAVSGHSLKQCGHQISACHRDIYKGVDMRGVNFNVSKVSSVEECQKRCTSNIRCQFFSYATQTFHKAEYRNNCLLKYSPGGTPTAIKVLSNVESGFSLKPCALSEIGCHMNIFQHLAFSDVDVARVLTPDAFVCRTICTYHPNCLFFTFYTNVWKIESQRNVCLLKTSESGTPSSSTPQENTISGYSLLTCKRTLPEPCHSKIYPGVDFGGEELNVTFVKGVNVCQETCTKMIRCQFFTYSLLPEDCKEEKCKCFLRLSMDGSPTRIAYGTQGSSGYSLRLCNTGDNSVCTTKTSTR
# method notes: Kallikrein Assay
# condition context: purified Human plasma kallikrein 0.5 nM; substrate Acetyl-K-P-R-AFC; 50 mM HEPES pH 7.4; Ki from IC50 by Cheng Prusoff equation; read-out: Hu P. Kallikrein
Listing of recorded Ki by entry.
Lab book: enter the figure in nM, no units written.

compound: COC(=O)Nc1ccc2c(c1)NC(=O)CCCC[C@@H](C(=O)N1CC[C@@]3(C1)OC(=O)Nc1ccc(Cl)cc13)c1nc-2c[nH]1 (single isomer, unassigned)
Ki (nM): 1.99

compound: CCOC(=O)C1CCCCC(C(=O)N2CCC[C@@]3(C2)OC(=O)Nc2ccc(Cl)c(F)c23)c2nc(c[nH]2)-c2ccc(NC(=O)OC)cc2N1 (mixture of isomers) [Example 32]
Ki (nM): 15.5

compound: COC(=O)Nc1ccc2c(c1)NC(=O)CCCC[C@@H](C(=O)N1CCC[C@@]3(C1)OC(=O)Nc1ccc(Cl)cc13)c1nc-2c(Cl)[nH]1
Ki (nM): 0.39

compound: CCOC(=O)C1C/C=C/CC(C(=O)N2CCC[C@@]3(C2)OC(=O)Nc2ccc(Cl)c(F)c23)c2nc(c[nH]2)-c2ccc(NC(=O)OC)cc2N1 (some centres unmarked)
Ki (nM): 63.7

compound: COC(=O)Nc1ccc2c(c1)NC(=O)[C@H](C)CCCC(C(=O)N1CC[C@@]3(C1)OC(=O)Nc1ccc(Cl)c(F)c13)c1nc-2c(Cl)[nH]1 (mixture of isomers)
Ki (nM): 1.32

compound: COC(=O)Nc1ccc2c(c1)NC(=O)CCCC[C@@H](C(=O)N1CC[C@@]3(C1)OC(=O)Nc1ccc(Cl)cc13)c1nc-2c(Cl)[nH]1 (single isomer, unassigned)
Ki (nM): 0.69

compound: COC(=O)Nc1ccc2c(c1)NC(=O)[C@H](C)CCCC(C(=O)N1CCC[C@@]3(C1)OC(=O)Nc1ccc(Cl)c(F)c13)c1nc-2c(Cl)[nH]1 (some centres unmarked)
Ki (nM): 0.96

compound: COC(=O)Nc1ccc2c(c1)NC(=O)CC/C=C\C[C@@H](C(=O)N1CCC[C@@]3(C1)OC(=O)Nc1ccc(Cl)c(F)c13)c1cc-2ccn1 [Example 22a]
Ki (nM): 0.77

compound: COC(=O)Nc1ccc2c(c1)NC(=O)CCCCC[C@@H](C(=O)N1CC[C@@]3(C1)OC(=O)Nc1ccc(Cl)c(F)c13)c1cc-2ccn1 [Example 18a]
Ki (nM): 3.65

compound: COC(=O)Nc1ccc2c(c1)NC(=O)CCCC[C@@H](C(=O)N1CC[C@@]3(C1)OC(=O)Nc1ccc(Cl)cc13)c1cc-2ccn1 [Example 17a]
Ki (nM): 3.8

Now look at this one.
Exercise: Entry COC(=O)Nc1ccc2c(c1)NC(=O)CCCCC(C(=O)N1CCC[C@@]3(C1)OC(=O)Nc1ccc(Cl)c(F)c13)c1nc-2c(Cl)[nH]1 (mixture of isomers) has what Ki?
Key: 0.56

----------
// UniProt:P03951 Ki records
Lab book: enter the figure in nM, no units written.

Worked examples, 2 molecules total:
molecule: COC(=O)Nc1ccc2c(c1)NC(=O)CCCC[C@@H](C(=O)N1CC[C@@]3(C1)OC(=O)Nc1ccc(Cl)cc13)c1cc-2ccn1 [Example 17a]
measured value: 9.2
//
molecule: COC(=O)Nc1ccc2c(c1)NC(=O)CCCC[C@@H](C(=O)N1CC[C@@]3(C1)OC(=O)Nc1ccc(Cl)c(F)c13)c1cccc-2n1 (single isomer, unassigned) [Example 23b]
measured value: 44.2

Exercise: Entry CCOC(=O)C1CCCCC(C(=O)N2CCC[C@@]3(C2)OC(=O)Nc2ccc(Cl)c(F)c23)c2nc(c[nH]2)-c2ccc(NC(=O)OC)cc2N1 (mixture of isomers) [Example 32] has what Ki?
Key: 4.94

----------
# assay system: purified Human plasma kallikrein (Homo sapiens)
# Construct: yields a heavy chain (371 amino acids) and a light chain (248 amino acids)
# method notes: Kallikrein Assay
# condition context: purified Human plasma kallikrein 0.5 nM; substrate Acetyl-K-P-R-AFC; 50 mM HEPES pH 7.4; Ki from IC50 by Cheng Prusoff equation; read-out: Hu P. Kallikrein
# Description: The effectiveness of a compound of the present invention as an inhibitor of Kallikrein can be determined using a relevant purified serine protease, and an appropriate synthetic substrate. The rate of hydrolysis of the chromogenic or fluorogenic substrate by the relevant serine protease was measured both in the absence and presence of compounds of the present invention. […] A decrease in the rate of fluorescence change in the presence of inhibitor is indicative of enzyme inhibition. […]
experimental readout: pKi
Recall that pKi is obtained by taking minus log10 of the concentration measured in molar.

compound: O=C1CCCCC(C(=O)N2CC[C@@]3(C2)OC(=O)Nc2ccc(Cl)c(F)c23)c2cc(ccn2)-c2cc3ccc(=O)[nH]c3cc2N1 (mixture of isomers)
pKi: 8.91
//
compound: COC(=O)Nc1ccc2c(c1)NC(=O)C(C)CCCC(C(=O)N1CCC[C@@]3(C1)OC(=O)Nc1ccc(Cl)cc13)c1cc-2ccn1 (single isomer, unassigned) [Example 15a]
pKi: 8.77
//
compound: COC(=O)Nc1ccc2c(c1)NC(=O)CCCCC(C(=O)N1CCC[C@@]3(C1)OC(=O)Nc1ccc(Cl)c(F)c13)c1nc-2c(C)[nH]1 (mixture of isomers)
pKi: 8.89
//
compound: COC(=O)Nc1ccc2c(c1)NC(=O)CCCC[C@H](C(=O)N1CC[C@@]3(C1)OC(=O)Nc1ccc(Cl)cc13)c1nc-2c(Cl)[nH]1 (single isomer, unassigned)
pKi: 7.49
//
compound: COC(=O)Nc1ccc2c(c1)NC(=O)CCCC[C@@H](C(=O)N1CCC[C@@]3(C1)OC(=O)Nc1ccc(Cl)c(F)c13)c1cc(F)cc-2c1 [Example 30b]
pKi: 8.82
//
compound: COC(=O)Nc1ccc2c(c1)NC(=O)CCCCC(C(=O)N1CC[C@@]3(C1)OC(=O)Nc1ccc(Cl)cc13)c1cc(F)cc-2c1 (some centres unmarked)
pKi: 7.90

Exercise: Entry COC(=O)Nc1ccc2c(c1)NC(=O)[C@H](C)CCC[C@@H](C(=O)N1CCC[C@@]3(C1)OC(=O)Nc1ccc(Cl)c(F)c13)C1=NC=C2O1 [Example 14a] has what pKi?
Key: 8.26

Exercise: Let us now turn to COC(=O)Nc1ccc2c(c1)NC(=O)CCCC[C@@H](C(=O)N1CC[C@@]3(C1)OC(=O)Nc1ccc(Cl)c(F)c13)c1ccnc-2c1 [Example 25a]
Key: 9.12

Exercise: Let us now turn to COC(=O)Nc1ccc2c(c1)NC(=O)CCCCC(C(=O)N1CC[C@@]3(C1)OC(=O)Nc1ccc(Cl)c(F)c13)c1nc-2c[nH]1 (mixture of isomers)
Key: 8.91

Exercise: Let us now turn to COC(=O)Nc1ccc2c(c1)NC(=O)CCCC[C@@H](C(=O)N1CC[C@@]3(C1)OC(=O)Nc1ccc(Cl)c(F)c13)c1cccc-2n1 (single isomer, unassigned) [Example 23b]
Key: 8.07

Exercise: Let us now turn to COC(=O)Nc1ccc2c(c1)NC(=O)CC/C=C/C[C@@H](C(=O)N1CCC[C@@]3(C1)OC(=O)Nc1ccc(Cl)c(F)c13)c1cc-2ccn1 [Example 21a]
Key: 7.77

----------
# assay system: purified human Factor XIa (Homo sapiens)
# Construct: purified human Factor XIa; purchased Sekisui Diagnostics
# Sequence (P03951 388-625 limits assumed): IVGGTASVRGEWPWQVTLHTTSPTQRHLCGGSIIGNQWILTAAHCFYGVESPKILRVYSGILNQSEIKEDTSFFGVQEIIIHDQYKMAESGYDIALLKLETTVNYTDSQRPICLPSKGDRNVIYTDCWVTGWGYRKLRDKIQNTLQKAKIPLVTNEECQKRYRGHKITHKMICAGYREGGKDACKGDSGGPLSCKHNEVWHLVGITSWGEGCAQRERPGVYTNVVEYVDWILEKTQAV
# Sequence (P03951 19-387 partner limits assumed): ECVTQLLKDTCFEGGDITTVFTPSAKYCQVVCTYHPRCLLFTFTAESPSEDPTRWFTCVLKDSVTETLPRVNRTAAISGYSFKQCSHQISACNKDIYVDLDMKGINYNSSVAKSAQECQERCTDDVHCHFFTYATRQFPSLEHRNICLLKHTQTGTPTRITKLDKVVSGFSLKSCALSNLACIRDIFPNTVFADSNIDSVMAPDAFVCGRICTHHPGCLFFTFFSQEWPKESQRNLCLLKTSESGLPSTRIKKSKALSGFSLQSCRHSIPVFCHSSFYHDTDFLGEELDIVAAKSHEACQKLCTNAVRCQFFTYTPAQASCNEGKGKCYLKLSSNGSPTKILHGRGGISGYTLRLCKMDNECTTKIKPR
# method notes: Factor XIa Assay
# Format: biochemical
# condition context: purified human Factor XIa 40 pM; substrate Z-Gly-Pro-Arg-AFC 100 μM; 50 mM HEPES pH 7.4; read-out: Hu FXIa Ki
Listing of recorded pKi by entry.
Recall that pKi is obtained by taking minus log10 of the concentration measured in molar.

molecule: COC(=O)Nc1ccc2c(c1)NC(=O)CCCCC(C(=O)N1CCC[C@@]3(C1)OC(=O)Nc1ccc(Cl)c(F)c13)c1nc-2c(C)[nH]1 (mixture of isomers)
pKi: 8.57
--
molecule: COC(=O)Nc1ccc2c(c1)NC(=O)C(C)CCCC(C(=O)N1CCC[C@@]3(C1)OC(=O)Nc1ccc(Cl)cc13)c1cc-2ccn1 (single isomer, unassigned) [Example 15b]
pKi: 6.13

Now look at this one.
Exercise: Record lookup: for purified human Factor XIa (Homo sapiens), what pKi belongs to COC(=O)Nc1ccc2c(c1)NC(=O)CCCC[C@@H](C(=O)N1CCC[C@@]3(C1)OC(=O)Nc1ccc(Cl)c(F)c13)c1nc-2c(C)[nH]1 (single isomer, unassigned) [Example 12b] ?
Key: 9.03

----------
# assay system: purified human Factor XIa (Homo sapiens)
pKi: −log10 of the molar value.
# binarize pKi: threshold 7 inclusive, high side class 1, low side class 0

compound: COC(=O)Nc1ccc2c(c1)NC(=O)CCCC[C@@H](C(=O)N1CC[C@@]3(C1)OC(=O)Nc1ccc(Cl)c(F)c13)c1ccnc-2c1 [Example 25a]
class name: class 1

compound: COC(=O)Nc1ccc2c(c1)NC(=O)CCCC[C@H](C(=O)N1CCC[C@@]3(C1)OC(=O)Nc1ccc(Cl)c(F)c13)c1nc-2c(C)[nH]1 (single isomer, unassigned) [Example 12a]
class name: class 0

compound: O=C1CCCCC(C(=O)N2CC[C@@]3(C2)OC(=O)Nc2ccc(Cl)c(F)c23)c2cc(ccn2)-c2cc3ccc(=O)[nH]c3cc2N1 (mixture of isomers) [Example 26]
class name: class 1

Here is the next item to consider.
Exercise: Please indicate if the recorded pKi for COC(=O)Nc1ccc2c(c1)NC(=O)CCCC[C@H](NC(=O)N1CC[C@@]3(C1)OC(=O)Nc1ccc(Cl)cc13)c1nc-2c[nH]1 [Example 38] meets or exceeds 7.
Key: class 1
